Test: qHTS Validation assay for Inhibitors of Plasmodium falciparum Dd2 growth in vitro; note: nearly all actives have a fitted effect of over 70% in size
Settings: P. falciparum Dd2 in RBCs, SYBR Green growth, 72 h; series mostly up to 28.7 µM
In all, about 4,100 compounds went through this assay and about 1,600 (39%) were called active. About 25% were inconclusive and are not listed. Calls come from the whole dose curve; as a rule, active = well fitted inhibition curve with a large enough effect; inconclusive = small, poorly fitted or top-dose-only effect; inactive = no such curve, though single readings can be large or run the other way. This is one part of the list.
Could you please pick one outcome from this set? 1.0 (active), 0.0 (inactive)

Worked set:
{"columns": ["molecule", "category_label"],
 "data": [
  ["CCn1cnc2c(Nc3cc(F)cc(F)c3)nc(C#N)nc21", 1.0],
  ["CCC(C)(C)n1nnnc1C(c1ccccc1OC)N1CCN(C(=O)c2ccco2)CC1 (stereo not given)", 1.0],
  ["Cc1ccccc1C(=O)N1CCC(c2nc3ccccc3s2)CC1", 0.0]
]}

[ask] Recorded call for CC(C)CN(Cc1cc(=O)oc2cc3c(cc12)CCCC3)CC(C)C ?
[reply] 1.0

[ask] Test call, this molecule: COc1ccc(-c2noc([C@@H]3CCCN3C(=O)CCCc3ccccc3)n2)cc1
[reply] 0.0

[ask] In this assay, the call recorded for COc1cccc2c(=O)n(CC(=O)NCCc3ccccc3)ccc12 was what?
[reply] 0.0
